B1: CPEB3 Ribozyme (parent)
chain: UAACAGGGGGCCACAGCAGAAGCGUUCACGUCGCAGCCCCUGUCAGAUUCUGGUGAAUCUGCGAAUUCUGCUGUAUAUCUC

- Variants of: B1
- Procedure details: self-cleavage, relative activity (ratio to wild type); higher = more cleavage; in vitro, sequencing
Readout type: self-cleavage
API doc: respond with a numeric literal and nothing else, no unit.

# annotated cases, reported self-cleavage shown
> print(dat)
                           sequence.content  numeric.value
1  UAACAGGGGGCCACUGCAGAAGCGUUCACGUCGCAGCACCUGUCAGAUUCUGGUGAAUCUGCGAAUUCUGCUGUAUAUCUC            0.2
2  UAACAGGGGGCCACAGCAGAAGCGUUCACGUCGCAGUCCCUGUCAGAUUCUAGUGAAUCUGCGAAUUCUGCUGUAUAUCUC           0.93
3  UAACAGGGGGCCACAGCAGAAGCGUUCACGUCGCAGCCCCUGUCAGAUUCUCGGGAAUCUGCGAAUUCUGCUGUAUAUCUC           1.12
4  UAACAGGUGGCCACAGCUGAAGCGUUCACGUCGCAGCCCCUGUCAGAUUCUGGUGAAUCUGCGAAUUCUGCUGUAUAUCUC           0.16
5  UAGCAGGGGGCCACAGCAGAAGCGUUCACGUCGCAGCCCCUGUCAGAUUCUGGUGAAUCUGCGAAUUCAGCUGUAUAUCUC           0.69
6  UAACAGGGGGCGACAGCAGAAGCGUUCACGUCGCAGCCCCUGUCAGAUUCUGGUGAAUCUGCGUAUUCUGCUGUAUAUCUC           0.13
7  UAACAGGGGGCCACAGCAGAAGCGUUCACGUCGCAGCCCCCGUCAGAUUCAGGUGAAUCUGCGAAUUCUGCUGUAUAUCUC           1.06
8  UAACAGGGGGCCACAGCAGAAGCGUUCACGUCACAGCCCCUGUCAGAUUCUGGUGAAUCUGCGAAUUCCGCUGUAUAUCUC           0.27

Ask: Consider the variant shown here: UAACAGGGGGCCACAGCAGAAGCGUUCACGUCGCAGCCCCUGUCAGAUCCUGGUGAAUCUGCGAAUUCUGCCGUAUAUCUC What is its recorded self-cleavage?
Result: 0.36

Ask: Consider the variant shown here: UAACAGGGGGCCACAGCAGAAGCGUUUACAUCGCAGCCCCUGUCAGAUUCUGGUGAAUCUGCGAAUUCUGCUGUAUAUCUC What is its recorded self-cleavage?
Result: 0.26

Ask: Consider the variant shown here: UAACAGCGGGCCACAGCAGAAGCGUUCACGUCGCAGCCCCUGUCAGAUUAUGGUGAAUCUGCGAAUUCUGCUGUAUAUCUC What is its recorded self-cleavage?
Result: 0.29

Where do the numbers come from? From the RNAGym collection of RNA variant scans (doi:10.1093/nar/gkz1192).
